These measurements were taken from paper PMC4501006.

Documented logD across a set of compounds
- Test Summary: Partition coefficient determination (log D)
- Assay type: physicochemical
The reply should be a number, written without any unit.

Check out these entries, answers already filled in.
Compound	logD
FCCOc1ccc(OCc2ccc([125I])cc2)cc1 [[^125I]7a]	3.96
[18F]CCOc1ccc(OCc2ccc(I)cc2)cc1 [[^18F]7a]	3.88
FCCOc1ccc(COc2ccc([125I])cc2)cc1 [[^125I]12a]	3.62

Okay, now this compound:
*Q* For [18F]CCOc1ccc(COc2ccc(I)cc2)cc1 [[^18F]12a] , what is its reported logD?
*A* 3.84

====

- Test Summary: In vivo biodistribution in normal ICR mice
- Recorded Conditions: i.v., 2 min
Measured Biodistribution of radioactivity, blood accompanies every entry in the list below.
Just the number in % injected dose per gram, nothing appended.

The following compounds have reported results that may help.
Compound	Biodistribution of radioactivity, blood, % injected dose per gram
FCCOc1ccc(COc2ccc([125I])cc2)cc1 [[^125I]12a]	4.96
[18F]CCOc1ccc(COc2ccc(I)cc2)cc1 [[^18F]12a]	7.53
[18F]CCOc1ccc(OCc2ccc(I)cc2)cc1 [[^18F]7a]	5.99

*Q* Bench note: what Biodistribution of radioactivity, blood did FCCOc1ccc(OCc2ccc([125I])cc2)cc1 [[^125I]7a] show?
*A* 5.03

====

- Test Summary: In vivo biodistribution in normal ICR mice
- Recorded Conditions: i.v., 60 min
Parameter Measured: Biodistribution of radioactivity, stomach (% injected dose per organ)
The reply should be a number in % injected dose per organ, with the unit left off.

Completed entries (count: 3):
Compound	Assay Value
FCCOc1ccc(COc2ccc([125I])cc2)cc1 [[^125I]12a]	2.27
[18F]CCOc1ccc(OCc2ccc(I)cc2)cc1 [[^18F]7a]	1.58
FCCOc1ccc(OCc2ccc([125I])cc2)cc1 [[^125I]7a]	2.44

The record that follows has no Biodistribution of radioactivity, stomach shown yet.
*Q* Consider the compound [18F]CCOc1ccc(COc2ccc(I)cc2)cc1 [[^18F]12a] and give its measured Biodistribution of radioactivity, stomach.
*A* 1.70

====

The compounds listed here are annotated with their Percentage of Parent tracer, Plasma.
- Test Summary: In vivo metabolism (biostability), HPLC analysis of organ samples
- Recorded Conditions: ICR mice, i.v., post-injection time 60 min
I only need the number, in %, no unit after it.

Compound	Percentage of Parent tracer, Plasma / %
FCCOc1ccc(OCc2ccc([125I])cc2)cc1 [[^125I]7a]	12.3

*Q* Which Percentage of Parent tracer, Plasma is listed for [18F]CCOc1ccc(OCc2ccc(I)cc2)cc1 [[^18F]7a] ?
*A* 7.2

*Q* Record request: Percentage of Parent tracer, Plasma value, item FCCOc1ccc(COc2ccc([125I])cc2)cc1 [[^125I]12a]
*A* 4.68

*Q* Recorded Percentage of Parent tracer, Plasma for [18F]CCOc1ccc(COc2ccc(I)cc2)cc1 [[^18F]12a] , please?
*A* 13.9

====

- Test Summary: In vivo biodistribution in normal ICR mice
- Recorded Conditions: i.v., 60 min
Biodistribution of radioactivity, spleen reference
Kindly answer with a numeric value in % injected dose per gram, unit omitted.

Examples from the recorded data:
Molecule	Biodistribution of radioactivity, spleen / % injected dose per gram
FCCOc1ccc(COc2ccc([125I])cc2)cc1 [[^125I]12a]	0.84
FCCOc1ccc(OCc2ccc([125I])cc2)cc1 [[^125I]7a]	1.14
[18F]CCOc1ccc(OCc2ccc(I)cc2)cc1 [[^18F]7a]	3.28

Next:
*Q* Quick one: Biodistribution of radioactivity, spleen for [18F]CCOc1ccc(COc2ccc(I)cc2)cc1 [[^18F]12a] ?
*A* 3.87
